The entries below are paired with their reported inhibition.
System: Methionine sulfoxide reductase A (Bos taurus)
assay_name: bovine MsrA enzyme inhibitors, primary screen, biochemical, absorbance, HTS (AID 651718);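 also: 0% = vehicle wells with enzyme and 100% = reference inhibitor wells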
experimental_conditions: purified bovine MsrA, absorbance read-out; at 15.5 µM; stronger effect = higher value
The whole screen tested about 360,000 compounds, of which about 2,700 (0.75%) were called active. This is one part of a sample in which actives are shown more often than they occur.
// return numeric value only (unit: %, not printed)

Before answering, review these 2 worked examples.
>  <compound>
Cc1ccc(Cl)cc1-c1ccc(/C=N/n2cnnc2)o1

>  <unit_of_measurement>
%

>  <inhibition>
4.94

$$$$
>  <compound>
O=C(O)C(CCc1ccccn1)c1ccccc1 (stereo not given)

>  <unit_of_measurement>
%

>  <inhibition>
-0.84

$$$$

Q) Annotate the compound CN1CCCCC(NC(=O)C(C)(C)C)C1=O (stereo not given) with its measured inhibition.
A) 0

Q) # return recorded inhibition for entry COC(=O)[C@H](CC(C)C)NS(=O)(=O)c1c(F)cccc1F
A) 1.4

====

Tested on: Methionine sulfoxide reductase A (Bos taurus)
assay_name: bovine MsrA enzyme inhibitors, primary screen, biochemical, absorbance, HTS (AID 651718);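 also: 0% = vehicle wells with enzyme and 100% = reference inhibitor wells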
experimental_conditions: purified bovine MsrA, absorbance read-out; at 15.5 µM; stronger effect = higher value
Among all 360,000 compounds or so, about 2,700 (0.75%) were called active. Many of the other results were omitted from the sample, so actives are more common in it than they were.
recorded_metric: inhibition (%)
// return numeric value only (unit: %, not printed)

Q) State its inhibition: COc1ccccc1C(=O)N/C(=C/c1ccc2c(c1)OCO2)C(=O)Nc1cccc(C(=O)O)c1
A) 5.04

Q) State its inhibition for this compound: COC(=O)[C@]12C[C@H](CC(=O)NCc3ccc(OC)c(OC)c3)C(=O)N(Cc3ccccc3)C1=C[C@H](C(C)C)O[C@@H]2C1CC1
A) 0.87

Q) Item COc1cccc(CC(=O)N2CCN(C(=O)C(=O)c3cccc(C(F)(F)F)c3)CC2)c1 : provide inhibition
A) -0.48

Q) Give a short answer stating reported inhibition for CCCCOCC1CN(CCCC)S(=O)(=O)c2c(Oc3ccc(F)cc3)cccc2O1 (stereo not given) .
A) 0.09

Q) Answer with the recorded inhibition of NCCCCCC(=O)N/N=C/c1ccc2nccnc2c1 only.
A) 4.64

Q) For the compound COc1ccc(CN2CCC(C)(Oc3cccc(F)c3)C2)c2ccccc12 (stereo not given) , give its measured inhibition value.
A) 0.31

Q) For the compound Cc1occc1C(=O)N/N=C/c1ccc(-c2cccc([N+](=O)[O-])c2)o1 , report inhibition.
A) 4.99

Q) Supply inhibition value. Item: COc1ccc(/C=C/C(=O)Nc2ccc(C34CC5CC(CC(O)(C5)C3)C4)cc2)cc1OC
A) 2.4

Q) Look up inhibition of CC1=NNC(=O)C1CCC(=O)N/N=C\c1ccc(Cl)c(Cl)c1 (stereo not given) and report it.
A) 0.26

Q) For the compound CCOC(=O)C1CSCCS(=O)(=O)N1Cc1ccc(Cl)cc1 (stereo not given) , give its measured inhibition value.
A) -0.33

Q) Tell me its inhibition given O=c1c(F)cn(C2CCCO2)c(=O)n1Cc1ccccc1Cl (stereo not given) as the entry.
A) 0.2

Q) Supply measured inhibition of COCCNC(=S)N(CCc1c(C)[nH]c2ccc(C)cc12)Cc1cccnc1 in your reply.
A) -1.51

Q) Using the record for O=C(Cc1ccccc1)N/N=C/c1ccc(Cl)cc1Cl , state its measured inhibition.
A) 0.83

Q) Recall and state the measured inhibition for CCOC(=O)CNC(=O)N(C)[C@H]1C[C@H]2c3[nH]c4c(-c5ccc6c(c5)OCO6)cccc4c3CCN2C(=O)[C@H]1[C@H](C)O .
A) 0.91

Q) Tell us which inhibition value is on record for Cc1cc(NCc2ccco2)n2c(nc3ccccc32)c1C#N
A) -0.85

Q) Look up and state reported inhibition for Cc1cc(OC(=O)NCCc2ccc(F)cc2)ccc1F
A) 0.24

Q) Supply inhibition value. Item: Cc1ccc(S(=O)(=O)c2c[nH]c3ccc(Cl)cc3c2=O)cc1
A) -0.29

Q) Dear colleague, please send me the reported inhibition for CCc1nnc(NC(=O)c2ccco2)s1 when you can.
A) 2.11

Q) Output inhibition of CCCc1ccc(OCc2ccc(C(=O)N/N=C/c3cccc([N+](=O)[O-])c3)o2)c(OC)c1
A) 0.9

Q) // fetch inhibition given entry CC(C)(C)NC(=O)CSc1nnc(NC(=O)CCc2ccccc2)s1
A) 0.59

====

Catalogue of inhibition readings, one per entry.
Test system: Methionine sulfoxide reductase A (Bos taurus)
assay_name: bovine MsrA enzyme inhibitors, primary screen, biochemical, absorbance, HTS (AID 651718);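 also: 0% = vehicle wells with enzyme and 100% = reference inhibitor wells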
experimental_conditions: purified bovine MsrA, absorbance read-out; at 15.5 µM; stronger effect = higher value
The whole screen tested about 360,000 compounds, of which about 2,700 (0.75%) were called active. Many of the other results were omitted from the sample, so actives are more common in it than they were.
A number alone suffices; assume %.

Here's what some known entries look like.
>  <compound>
CCCc1nc(SCC(=O)N2CCCC2)c2c(=O)n(C)c(=O)n(C)c2n1

>  <unit_of_measurement>
%

>  <inhibition>
5.22

$$$$
>  <compound>
Cc1ccc(-c2noc(CC(c3ccccc3)c3ccccc3)n2)cc1

>  <unit_of_measurement>
%

>  <inhibition>
0.66

$$$$
>  <compound>
COc1ccc(/C=C(\NC(=O)c2ccccc2)C(=O)NCCN2CCOCC2)cc1OC

>  <unit_of_measurement>
%

>  <inhibition>
2.05

$$$$
>  <compound>
Cc1c(Cl)c([N+](=O)[O-])nn1Cc1ccc(C(=O)N/N=C\c2cc(Cl)ccc2O)o1

>  <unit_of_measurement>
%

>  <inhibition>
0.28

$$$$
>  <compound>
O=c1c2ccccc2nnn1CSc1nc2sc3c(c2c(=O)n1CC1CCCO1)CCC3 (stereo not drawn)

>  <unit_of_measurement>
%

>  <inhibition>
-0.37

$$$$

Q) State its inhibition: COc1ccc2[nH]c(=O)c(CNc3ccc(C)c(C)c3)cc2c1
A) 1

Q) Answer with the recorded inhibition for the compound listed here: CC(=O)Nc1ccc2c3c(ccc([N+](=O)[O-])c13)CC2
A) 0.76

Q) Tell us which inhibition value is on record for Cc1c(-c2ccccc2)cn2c1-c1ccc(C)n1CC2
A) 2.59

Q) Answer with reported inhibition of Cc1ccc(C)c(NC2=NCC(=O)N2c2ccc3c(c2)OCCO3)c1
A) 0

Q) # return recorded inhibition for input Cn1c(=NC(=O)c2ccco2)sc2cccc(F)c21
A) 4.22

Q) Please supply the value of reported inhibition for the item CCN1C(=O)N[C@@H]2C[C@H](C(=O)N3CCCC3)[C@H](C)[C@H](c3ccccc3)C[C@@H]21
A) -0.32

Q) Complete the entry with inhibition for CCn1cc(/C=C(\NC(=O)c2ccc(C)cc2)C(=O)NCCN2CCOCC2)c2ccccc21
A) 4.67

====

# Lookup of reported inhibition keyed by entry
Tested on: Methionine sulfoxide reductase A (Bos taurus)
assay_name: bovine MsrA enzyme inhibitors, primary screen, biochemical, absorbance, HTS (AID 651718);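 also: 0% = vehicle wells with enzyme and 100% = reference inhibitor wells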
experimental_conditions: purified bovine MsrA, absorbance read-out; at 15.5 µM; stronger effect = higher value
Screen size: about 360,000 compounds; about 2,700 (0.75%) were called active. What follows is part of a selection rich in actives, with near analogues and random picks from the rest.
Give the number; % is assumed, so skip it.

Example entries and their recorded answers appear below.
>  <compound>
C=CCOCCN(C)C1=NS(=O)(=O)c2ccccc21

>  <subject_of_test>
Methionine sulfoxide reductase A (Bos taurus)

>  <value_measured>
0.32

$$$$
>  <compound>
COC(=O)C1=C(C)N(Cc2cccc(C(F)(F)F)c2)C(=NCc2ccccc2)NC1c1ccccc1C(F)(F)F (stereo unspecified)

>  <subject_of_test>
Methionine sulfoxide reductase A (Bos taurus)

>  <value_measured>
-1.24

$$$$
>  <compound>
CC1CC(c2ccccc2)n2nc(NC(=O)c3cccs3)nc2N1 (stereo unspecified)

>  <subject_of_test>
Methionine sulfoxide reductase A (Bos taurus)

>  <value_measured>
-0.81

$$$$
>  <compound>
CC[C@H](NC(=O)[C@H](Cc1ccccc1)NC(=O)[C@H]1O[C@@H](n2cnc3c(=O)[nH]c(N)nc32)[C@H](O)[C@@H]1O)c1ccccc1

>  <subject_of_test>
Methionine sulfoxide reductase A (Bos taurus)

>  <value_measured>
0.98

$$$$
>  <compound>
Brc1cc(/C=N/n2cnnc2)oc1Br

>  <subject_of_test>
Methionine sulfoxide reductase A (Bos taurus)

>  <value_measured>
2.05

$$$$

Q) Identify measured inhibition obtained with Methionine sulfoxide reductase A (Bos taurus) for CCCC(=O)N1CCC1(C)C(=O)NS(=O)(=O)c1ccc(Cl)cc1 (stereo unspecified) .
A) -0.68

====

Tested on: Methionine sulfoxide reductase A (Bos taurus)
assay_name: bovine MsrA enzyme inhibitors, primary screen, biochemical, absorbance, HTS (AID 651718);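 also: 0% = vehicle wells with enzyme and 100% = reference inhibitor wells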
experimental_conditions: purified bovine MsrA, absorbance read-out; at 15.5 µM
Out of some 360,000 compounds screened, about 2,700 (0.75%) were called active. Rule as the data show it: active = inhibition above about 4.5%; inactive = the rest. The entries come from a sample that favours actives as a whole.
Lab note: assign the record to one of class 1 for active, class 0 for inactive

Here's what some known entries look like.
>  <given_smiles>
COc1ccc(S(=O)(=O)N(C)CC(=O)N2CCCC2)cc1Cl

>  <assigned_class>
class 0

$$$$
>  <given_smiles>
O=C(N/N=C/c1ccc2c(c1)OCO2)c1ccc(Cn2cc([N+](=O)[O-])cn2)o1

>  <assigned_class>
class 1

$$$$
>  <given_smiles>
Cc1cc2c(=O)n(CC(=O)NCC(=O)Nc3ccc(C(C)C)cc3)cnc2s1

>  <assigned_class>
class 0

$$$$
>  <given_smiles>
CCc1n[nH]c(=S)n1/N=C/c1c[nH]c2ccc(Br)cc12

>  <assigned_class>
class 0

$$$$

Now for another entry.
Q) Please indicate how the test categorized CCCCc1cc(=O)oc2cc(C)cc(OCc3nn[nH]n3)c12 .
A) class 0
